- Tested on: NCI-H226
- protocolDetails: NCI tumour cell line growth inhibition, 48 h
The source made the active and inactive calls. Cut-off read from the data, not from the text of the source: active = GI50 up to about 1.1 µM and inactive = higher.
valueKind: GI50

C[C@]12CC(c3ccccc3O1)C(C(=O)Nc1nc(C34CC5CC(CC(C5)C3)C4)cs1)C(=O)N2 (stereo partly specified) :: > 100 µM (inactive)
NC(=O)C(=CNC(=S)Nc1ccccc1)C(N)=O :: > 100 µM (inactive)
Cn1nc2ccccc2cc1=O :: > 100 µM (inactive)
C#CCCCCC#Cc1ccccc1C(=O)OC :: 43.5 µM (inactive)
O=S(=O)(O)c1ccc(/N=N/c2nc(C(F)(F)F)c(C(F)(F)F)[nH]2)cc1 :: 31.5 µM (inactive)

Which measured GI50 value corresponds to COc1ccc(/C(=N/NC(N)=O)C(c2ccc(OC)cc2)C2C(=O)Oc3ccccc32)cc1 (stereo unspecified) ?
> 100 µM (inactive)

Do the same for "O=c1[nH]nc2c3n[nH]c(=O)n3c3ccccc3n12" please
50.1 µM (inactive)

Do the same for "CCOC(=O)N1CCN(Cc2cc(=O)n3cc(C)ccc3n2)CC1" please
> 100 µM (inactive)

###

- Tested on: HOP-92
- protocolDetails: NCI tumour cell line growth inhibition, 48 h
Calls of active or inactive are those of the source. Rule as the data show it: active = GI50 up to about 1.1 µM and inactive = higher.
Form entry, call: pick from active, inactive

COc1cc(/C=C\c2ccccc2)cc(OC)c1OC :: inactive

Which outcome was entered for the compound COC(=O)C(Cc1c(-c2[nH]c3ccccc3c2CC(NC(C)=O)C(=O)OC)[nH]c2ccccc12)NC(C)=O (centres undefined) in this test?
inactive

Do the same for "C[C@@H]1C[C@H]2[C@@H]3CCC4=CC(=O)C=C[C@]4(C)[C@@]3(F)[C@@H](O)C[C@]2(C)[C@@]1(O)C(=O)CO" please
inactive

###

- System: SW-620
- protocolDetails: NCI tumour cell line growth inhibition, 48 h
Active and inactive are the calls of the source. Rule as the data show it: active = GI50 up to about 1.1 µM and inactive = higher.
Form entry, call: pick from active, inactive

C1=CCC[C@@H]2CN3CCCC/C=C\CCCC[C@H]4C[C@H](CN(CCCCCCCC1)C4)[C@H]2CC3 :: inactive
Cc1c2ccccc2c(CO)c2cc(F)c3ccccc3c12 :: inactive
CC1OC(n2cc(F)c(=O)[nH]c2=O)C=CC1=O (stereo unspecified) :: inactive

Turning to the following compound.
Which outcome was entered for the compound C#CCN(N=O)C(=O)NCCCC(NC(C)=O)C(=O)NCc1ccccc1 (stereo unspecified) in this test?
inactive

###

Entries annotated with measured GI50
- Test system: SK-MEL-28
- protocolDetails: NCI tumour cell line growth inhibition, 48 h
Activity calls are given as the source filed them. Cut-off read from the data, not from the text of the source: active = GI50 up to about 1.1 µM and inactive = higher.

Solved cases (5 shown):
OC1(C23CC4CC(CC(C4)C2)C3)CSCC1(O)C12CC3CC(CC(C3)C1)C2 (stereo unspecified) :: > 100 µM (inactive)
CCCCCCCC(=O)OC(CBr)COC(=O)C(C)(C)C (stereo unspecified) :: > 100 µM (inactive)
CCCCCCCCCCCCNC1(C)CNCCCNCCNCCCNC1 :: 1.87 µM (inactive)
O=c1[nH]ccc2c1ccn2C1CC(O)C(CO)O1 (stereo unspecified) :: > 100 µM (inactive)
CCCNC(=S)N/N=C(\C)c1ccc(S(=O)(=O)N(C)c2ccccc2)cc1 :: > 100 µM (inactive)

Moving on to another molecule below.
Requested read-out GI50, target or system SK-MEL-28, entry CSC1NC=Nc2c1sc(=S)n2-c1ccccc1 (stereo unspecified)
> 100 µM (inactive)

###

- Tested on: OVCAR-3
- protocolDetails: NCI tumour cell line growth inhibition, 48 h
The source made the active and inactive calls. Cut-off read from the data, not from the text of the source: active = GI50 up to about 1.1 µM and inactive = higher.
Entries annotated with measured GI50

OCC[N+]12CCCN1CCC2 :: > 100 µM (inactive)
COc1ccc(-n2c(C)nc3ccc(/N=C/c4ccccc4)cc3c2=O)cc1 :: > 100 µM (inactive)
CC(=O)Oc1ccc2c(c1)c1c(=O)oc(C)nc1n2Cc1ccccc1 :: 77.6 µM (inactive)

Moving on to another compound below.
Requested read-out GI50, target or system OVCAR-3, entry "O=[N+]([O-])C1(CO)COC2(OC1)c1ccccc1-c1ccccc12"
> 73.5 µM (inactive)

###

- Tested on: SF-295
- protocolDetails: NCI tumour cell line growth inhibition, 48 h
Calls of active or inactive are those of the source. No stated cut-off is given here; in the data, active = GI50 up to about 1.1 µM and inactive = higher.
Entries annotated with measured GI50

Solved cases (5 shown):
Cc1c(C(C)C)cc(OCCO)cc1C(C)C :: 34.4 µM (inactive)
COc1cc(C(=O)CBr)c(OC)cc1C :: > 100 µM (inactive)
O=c1ccn(-c2ccccn2)c(=O)n1-c1ccccn1 :: > 100 µM (inactive)
Cc1ccc(C2=Nc3ccccc3NC(=O)C2)cc1 :: > 100 µM (inactive)
CC1(C2CCC3(C)C(C2)C3Sc2ccccc2)OCCO1 (configuration not stated) :: 21.5 µM (inactive)

Which measured GI50 value corresponds to "CN1/C(=C/C(=O)c2ccc(Cl)cc2)Nc2ccccc21" ?
44.9 µM (inactive)

Do the same for "CN(CCCNC(=O)c1c2ccc3ccccc3c2nn1C)CCCNC(=O)c1c2ccc3ccccc3c2nn1C" please
4.29 µM (inactive)

Do the same for "O=[N+]([O-])c1cccc(/N=C2\c3ccccc3CN2c2cccc([N+](=O)[O-])c2)c1" please
> 100 µM (inactive)

Do the same for "COc1ccccc1-n1nnc2c(N)nc(N)nc21" please
> 100 µM (inactive)

Do the same for "O=C1OCN(c2ccccc2)C12CCN(Cc1ccccc1)CC2" please
16.4 µM (inactive)

Do the same for CC(=O)SC(C[N+](=O)[O-])c1ccc2c(c1)OCO2 (configuration not stated) please
10.9 µM (inactive)

Do the same for "O=C(NCc1ccccc1)c1c(O)nc2ccccc2c1O" please
> 100 µM (inactive)

###

Entries annotated with measured GI50
- Test system: A549
- protocolDetails: NCI tumour cell line growth inhibition, 48 h
Active and inactive are the calls of the source. No stated cut-off is given here; in the data, active = GI50 up to about 1.1 µM and inactive = higher.

Which measured GI50 value corresponds to "Nc1nc(Cl)cc(NCCCNc2cc(Cl)nc(N)n2)n1" ?
> 100 µM (inactive)

Do the same for "CCOC(=O)c1sc2nc(SC)nc3c2c1NCN3c1ccc2c(c1)OCO2" please
7.83 µM (inactive)

Do the same for "Clc1ccc(OCc2nnc(COc3ccc(OCc4nnc(COc5ccc(Cl)cc5Cl)o4)c(Cl)c3)o2)c(Cl)c1" please
32 µM (inactive)

Do the same for "O=S(=O)(O)c1ccc(/N=N/c2nc(C(F)(F)F)c(C(F)(F)F)[nH]2)cc1" please
61.8 µM (inactive)

Do the same for O=[N+]([O-])C[C@@]12O[C@]3(O)C4C5CC(C6C5C3C61)C42 (stereo not given in full) please
> 100 µM (inactive)

###

- Test system: NCI-H23
- protocolDetails: NCI tumour cell line growth inhibition, 48 h
The source made the active and inactive calls. Cut-off read from the data, not from the text of the source: active = GI50 up to about 1.1 µM and inactive = higher.
Form entry, call: pick from active, inactive

NC1=NC(c2ccccc2)CC(c2cc(Cl)ccc2O)=N1 (configuration not stated) :: inactive

Which outcome was entered for the compound "O=c1c2ccccc2nc2sc(/N=C/C=C/c3ccccc3)nn12" in this test?
inactive

Do the same for "Cc1ccc(/C=C/C(=N/NC(=O)N/N=C(/C=C/c2ccc(C)cc2)C(C)(C)CN2CCCCC2)C(C)(C)CN2CCCCC2)cc1" please
inactive

Do the same for "COc1cc2c(cc1C1=NC(C)(C)CO1)OCO2" please
inactive

###

Entries annotated with measured GI50
- System: SK-MEL-2
- protocolDetails: NCI tumour cell line growth inhibition, 48 h
Calls of active or inactive are those of the source. No stated cut-off is given here; in the data, active = GI50 up to about 1.1 µM and inactive = higher.

Solved cases (3 shown):
O=C1OC2(CCCCC2)C(Oc2ccc(Cl)cc2)=C1F :: 23.8 µM (inactive)
COc1ccc(/C(=N/NC(=O)NN)C(c2ccc(OC)cc2)C2(O)CNc3c(Cl)cc(Cl)cc32)cc1 (stereo not given) :: > 100 µM (inactive)
COc1ccc(N2C(=O)C3c4[nH]c5ccccc5c4C4CCCCCCCCCCC4C3C2=O)cc1 (stereo not given) :: > 100 µM (inactive)

Which measured GI50 value corresponds to CCCCS(=O)(=O)CCC(N)C(=O)O (stereo not given) ?
> 100 µM (inactive)

Do the same for Cc1cn(C2CC(N=[N+]=[N-])C(CO)O2)c(=O)n(CCCCO)c1=O (stereo not given) please
> 100 µM (inactive)

###

- Test system: 786-0
- protocolDetails: NCI tumour cell line growth inhibition, 48 h
Activity calls are given as the source filed them. Cut-off read from the data, not from the text of the source: active = GI50 up to about 1.1 µM and inactive = higher.
valueKind: GI50

O=C1NCCS(=O)(=O)N[C@@H](CC2=CC=CCC2)C(=O)N2CCCC12 (some centres undefined) :: > 100 µM (inactive)
COC(=O)c1ccc(C(=O)NC(Cc2ccc(Oc3cc(CC(NC(=O)c4ccccc4C(=O)OC)C(=O)OC)ccc3OC)cc2)C(=O)OC)cc1 (centres undefined) :: > 100 µM (inactive)
C[n+]1c(-c2ccccc2)cc2/c(=C\c3ccc([N+](=O)[O-])cc3)c3ccccc3n21 :: 1.52 µM (inactive)
CC1(C)CC(=O)c2c(-c3ccc(Cl)cc3)c(C#N)c(=S)n(C3OC(CO)C(O)C(O)C3O)c2C1 (centres undefined) :: 27.5 µM (inactive)
COc1ccc(-n2c(C)nc3ccc(/N=C/c4ccccc4)cc3c2=O)cc1 :: > 100 µM (inactive)
COC1CC(n2ccc(=O)[nH]c2=O)OC1CO (centres undefined) :: > 100 µM (inactive)
CC1(C)COC2(OC1)C1=NS(=O)(=O)CC13CCC2C3(C)C (centres undefined) :: > 100 µM (inactive)
COc1cc([C@@H]2c3cc4c(cc3C[C@H]3COC(=O)[C@@H]32)OCO4)cc(OC)c1OC :: 0.00372 µM (active)
CN1CCN(C(=O)CCNC(=O)Cc2ccc(C(=O)c3ccccc3)cc2)CC1 :: > 100 µM (inactive)
N#CC(NNC(=O)Cc1ccccc1)c1c(O)ccc2ccccc12 (centres undefined) :: 4.6 µM (inactive)

Requested read-out GI50, target or system 786-0, entry "CCOC(=O)c1cc2ncccc2c2ccccc12"
> 100 µM (inactive)

Do the same for CCCCS(=O)(=O)CCC(N)C(=O)O (centres undefined) please
> 100 µM (inactive)

Do the same for "CCOC(=O)c1sc2nc(SC)nc3c2c1N=CN3c1ccc(Br)cc1" please
40.1 µM (inactive)
